- System: S. aureus Newman;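 further: first quartile when negative (synergy) and third quartile when positive (antagonism)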
- measurement.notes: Bliss interaction score (quartile over a dose matrix) (fitness difference); higher = more antagonism (negative = synergy)
measured.attribute: Bliss interaction score
Write no unit; give the number alone.

May I ask what Bliss interaction score has been recorded for CC1(C)S[C@@H]2[C@H](NC(=O)[C@H](N)c3ccc(O)cc3)C(=O)N2[C@H]1C(=O)O [Amoxicillin] + COc1cc(Cc2cnc(N)nc2N)cc(OC)c1OC [Trimethoprim] ? 0.0661

May I ask what Bliss interaction score has been recorded for C[C@H]1COc2c(N3CCN(C)CC3)c(F)cc3c(=O)c(C(=O)O)cn1c23 [Levofloxacin] + CC(=O)NC[C@H]1CN(c2ccc(N3CCOCC3)c(F)c2)C(=O)O1 [Linezolid] ? 0.0972

May I ask what Bliss interaction score has been recorded for CC1(C)S[C@@H]2[C@H](NC(=O)[C@H](N)c3ccc(O)cc3)C(=O)N2[C@H]1C(=O)O [Amoxicillin] + Cc1cc(NS(=O)(=O)c2ccc(N)cc2)no1 [Sulfamethoxazol] ? -0.0589

May I ask what Bliss interaction score has been recorded for CCCCCCCCCC(=O)N[C@@H](Cc1c[nH]c2ccccc12)C(=O)N[C@H](CC(N)=O)C(=O)N[C@@H](CC(=O)O)C(=O)N[C@@H]1C(=O)NCC(=O)N[C@@H](CCCN)C(=O)N[C@@H](CC(=O)O)C(=O)N[C@H](C)C(=O)N[C@@H](CC(=O)O)C(=O)NCC(=O)N[C@H](CO)C(=O)N[C@@H]([C@H](C)CC(=O)O)C(=O)N[C@@H](CC(=O)c2ccccc2N)C(=O)O[C@@H]1C [Daptomycin] + C/C(=C\C(=O)OCCCCCCCCC(=O)O)C[C@@H]1OC[C@H](C[C@@H]2O[C@H]2[C@@H](C)[C@H](C)O)[C@@H](O)[C@H]1O [Pseudomonic acid] ? -0.0312
